- Assay Target: Prostaglandin E2 receptor EP1 subtype (Homo sapiens)
- Sequence (P34995 whole entry): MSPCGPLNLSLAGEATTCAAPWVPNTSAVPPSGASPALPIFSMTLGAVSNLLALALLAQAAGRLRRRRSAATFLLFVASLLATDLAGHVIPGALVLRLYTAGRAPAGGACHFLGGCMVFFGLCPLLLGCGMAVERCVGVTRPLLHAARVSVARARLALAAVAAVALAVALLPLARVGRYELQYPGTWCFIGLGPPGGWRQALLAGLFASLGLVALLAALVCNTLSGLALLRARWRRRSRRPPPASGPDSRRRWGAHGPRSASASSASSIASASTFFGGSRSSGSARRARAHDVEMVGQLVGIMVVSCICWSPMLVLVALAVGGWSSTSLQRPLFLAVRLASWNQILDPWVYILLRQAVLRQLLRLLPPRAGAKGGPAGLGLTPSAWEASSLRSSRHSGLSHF
Measurement Label: Ki

Exam item: Returns the measured Ki for the input molecule. Input: "COc1ccc2cc(OCC3(C(=O)O)CN(C(=O)c4ccc(F)cc4)C3)ccc2c1"
Marked response: > 10 µM

====

- Experiment Description: Half life in C57BL/6 mouse at 10 mg/kg, po by LC-MS/MS analysis
- Assay type: ADME, organism-based
- Run Parameters: in vivo
Measurement Label: half-life (h)
Numeric answer only, unit h assumed.

Exam item: Returns the measured half-life for the input compound. Input: "Cc1cc2ccccc2n1CCNC(=O)c1ccc(-c2nnn[nH]2)cc1"
Marked response: 10.5

====

- Assay Target: Prostaglandin E2 receptor EP4 subtype (Homo sapiens, UniProt P35408)
- Sequence (P35408 whole entry): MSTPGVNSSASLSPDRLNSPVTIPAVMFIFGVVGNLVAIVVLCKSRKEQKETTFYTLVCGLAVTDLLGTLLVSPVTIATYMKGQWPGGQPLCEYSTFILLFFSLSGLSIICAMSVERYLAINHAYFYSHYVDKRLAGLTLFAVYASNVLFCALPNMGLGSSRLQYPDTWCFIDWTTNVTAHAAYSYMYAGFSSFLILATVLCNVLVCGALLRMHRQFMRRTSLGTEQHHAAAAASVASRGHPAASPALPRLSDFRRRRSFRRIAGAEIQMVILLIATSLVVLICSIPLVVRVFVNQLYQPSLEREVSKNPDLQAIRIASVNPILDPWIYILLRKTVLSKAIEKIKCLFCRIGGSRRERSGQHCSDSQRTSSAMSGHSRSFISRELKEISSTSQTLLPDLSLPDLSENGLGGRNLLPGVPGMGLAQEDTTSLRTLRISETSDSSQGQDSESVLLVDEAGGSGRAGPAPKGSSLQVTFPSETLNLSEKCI
- Experiment Description: Binding affinity to human EP4 receptor expressed in CHO cells assessed as inhibition constant
- Assay type: cell-based
pKi: −log10 of the molar value.
Measurement Label: pKi

Exam item: Returns the measured pKi for the input molecule. Input: "COc1ccc2cc(OCC3(C(=O)O)CN(C(=O)c4ccc(F)cc4)C3)ccc2c1"
Marked response: < 5.00

====

- Experiment Description: Ratio of drug level in brain to plasma in C57BL/6 mouse at 10 mg/kg, po by LC-MS/MS analysis
- Assay type: ADME, organism-based
- Run Parameters: read-out: BPR
Measurement Label: Kp
When you answer, write just the number.

Exam item: Returns the measured Kp for the input compound. Input: "Cc1cc2ccccc2n1CCNC(=O)c1ccc(-c2nnn[nH]2)cc1"
Marked response: 0.02

====

- Experiment Description: Ratio of drug level in brain to plasma in C57BL/6 mouse at 3 mg/kg, ip by LC-MS/MS analysis
- Format: ADME, organism-based
- Run Parameters: read-out: BPR
Measurement Label: Kp
When you answer, write just the number.

Exam item: Returns the measured Kp for the input compound. Input: "COc1cc(/C=C/C(=O)NCCn2c(C)cc3ccccc32)cc(OC)c1OC"
Marked response: 0.3

====

- Experiment Description: Ratio of drug level in brain to plasma in pilocarpine-induced Sprague-Dawley rat at 25 mg/kg, ip after 6 hrs by LC-MS/MS analysis
Measurement Label: Kp at 6 h

Exam item: Returns the measured Kp at 6 h for the input molecule. Input: "Cc1[nH]c2ccccc2c1CCNC(=O)c1ccc(-c2c[nH]cn2)cc1"
Marked response: 0.03

====

- Assay Target: Prostaglandin E2 receptor EP2 subtype (Homo sapiens, UniProt P43116)
- Sequence (P43116 whole entry): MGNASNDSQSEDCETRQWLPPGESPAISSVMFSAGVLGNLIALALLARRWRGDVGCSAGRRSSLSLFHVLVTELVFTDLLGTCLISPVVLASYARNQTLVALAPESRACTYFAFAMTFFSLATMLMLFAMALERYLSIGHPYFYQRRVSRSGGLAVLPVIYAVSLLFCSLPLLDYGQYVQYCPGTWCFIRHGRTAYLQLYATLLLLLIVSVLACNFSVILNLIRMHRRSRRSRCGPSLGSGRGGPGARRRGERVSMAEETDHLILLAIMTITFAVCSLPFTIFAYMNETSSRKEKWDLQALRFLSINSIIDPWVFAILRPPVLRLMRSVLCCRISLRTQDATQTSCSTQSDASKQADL
- Experiment Description: Binding affinity to EP2 receptor in human mast cell assessed as inhibition constant
Measurement Label: pKi
Value format note: pKi is -log10 of concentration (mol/L); just state the number.

Exam item: Provide value of pKi for this record tested with Prostaglandin E2 receptor EP2 subtype (Homo sapiens, UniProt P43116): COc1ccc(C(=O)N2CCC(COc3ccc(-c4ccc(C#N)cc4)cc3)(C(=O)O)C2)cc1 (stereo unspecified)
Marked response: 9.20
